The entries below are paired with their reported pEC50.
target: UniProt Q923Y8; assay: cAMP Biotrak EIA functional assay in HEK293 cells stably expressing mTAAR1; assay type: cell-based; conditions: read-out: EC50
Sequence (Q923Y8 whole entry): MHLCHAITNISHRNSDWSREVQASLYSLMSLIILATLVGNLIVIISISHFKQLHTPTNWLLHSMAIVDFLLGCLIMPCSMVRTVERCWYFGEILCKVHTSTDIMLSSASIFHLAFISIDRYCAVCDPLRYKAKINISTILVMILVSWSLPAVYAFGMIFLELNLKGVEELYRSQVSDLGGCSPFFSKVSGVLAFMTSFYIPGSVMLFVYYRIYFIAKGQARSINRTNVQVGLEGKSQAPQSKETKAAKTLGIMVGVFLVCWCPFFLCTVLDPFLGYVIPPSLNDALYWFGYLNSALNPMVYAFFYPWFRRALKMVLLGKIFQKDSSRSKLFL
Scale for pEC50: -log10 of concentration given in mol/L; no unit attached.

Would you please look over these solved cases?
# COMPOUND, ASSAYED_SYSTEM, pEC50
measured = [
    ("CNCCc1ccccc1", "UniProt Q923Y8", 6.82),
    ("NCCc1ccc(O)c(O)c1", "UniProt Q923Y8", 4.93),
]

Q) Field request: pEC50 | item: NCC(O)c1ccc(O)cc1 (centres unmarked)
A) 4.71
